Origin of values: paper PMC12811658

- assay details: Pharmacokinetics of iDeg-6
- Type: in vivo, male C57Bl/6 mice
- measurement parameters: male, C57Bl/6, mouse, plasma; 30 mg/kg IP
property name: half-life (h)
Please state the figure in h; there is no need to write the unit.

Query: // half-life lookup, key: C#Cc1ccc(NC(=O)OC[C@]23CN(S(=O)(=O)c4ccc(C(C)(C)C)cc4C)C[C@H]2C[C@H]2C[C@@H]3C2(C)C)cc1
Reply: 4

* * *

- assay details: Pharmacokinetics of iDeg-6
- Assay type: in vivo, male C57Bl/6 mice
- measurement parameters: male, C57Bl/6, mouse, plasma; 1 mg/kg IV
property name: C0 (ng/mL)
Write it as a number; the unit ng/mL goes unstated.

Query: Entry C#Cc1ccc(NC(=O)OC[C@]23CN(S(=O)(=O)c4ccc(C(C)(C)C)cc4C)C[C@H]2C[C@H]2C[C@@H]3C2(C)C)cc1 [98 (iDeg-6)] : reported C0 = ?
Reply: 1120

* * *

- tested target: IDO1 protein levels in BxPC3 cells (Homo sapiens)
- Sequence (P14902 whole entry): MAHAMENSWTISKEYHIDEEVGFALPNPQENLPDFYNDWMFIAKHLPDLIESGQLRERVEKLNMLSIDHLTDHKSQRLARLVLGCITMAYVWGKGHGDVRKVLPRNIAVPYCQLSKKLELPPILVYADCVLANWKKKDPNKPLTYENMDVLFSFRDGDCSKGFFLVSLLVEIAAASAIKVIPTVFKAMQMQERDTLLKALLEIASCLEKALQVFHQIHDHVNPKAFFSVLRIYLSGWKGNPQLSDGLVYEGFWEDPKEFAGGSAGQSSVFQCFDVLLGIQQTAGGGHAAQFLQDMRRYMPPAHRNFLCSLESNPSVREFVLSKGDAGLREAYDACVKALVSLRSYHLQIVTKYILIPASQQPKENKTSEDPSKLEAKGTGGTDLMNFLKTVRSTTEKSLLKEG
- assay details: IDO1 immunoblotting (degradation)
- Assay type: cell-based
- Design: endogenous in cells; host or cells: BxPC3 (DSMZ), IFN-γ stimulated
- measurement parameters: 10 nM, 24 h incubation; mean ± SD
property name: Max. degradation (%)

> print(dat)
                         structure.notation         property.name       reported
1  C#Cc1ccc(NC(=O)OC[C@]23CN(S(=O)(=O)c4ccc(C(C)(C)C)cc4CC)C[C@H]2C[C@H]2C[C@@H]3C2(C)C)cc1  Max. degradation (%)   66 ± 4 (3) %
2  C#Cc1ccc(NC(=O)OC[C@]23CN(S(=O)(=O)c4ccc(C(C)(C)C(=O)O)cc4)C[C@H]2C[C@H]2C[C@@H]3C2(C)C)cc1  Max. degradation (%)  36 ± 10 (5) %
3  CC(C)(C)c1ccc(S(=O)(=O)N2C[C@H]3C[C@H]4C[C@H](C4(C)C)[C@@]3(COC(=O)Nc3ccc(I)cc3)C2)c(C2CC2)c1  Max. degradation (%)  31 ± 18 (3) %
4  C#Cc1ccc(NC(=O)OC[C@]23CN(S(=O)(=O)c4ccc(C(C)(C)C)cc4)C[C@H]2C[C@H]2C[C@@H]3C2(C)C)cc1  Max. degradation (%)  29 ± 16 (5) %

# ---- query compound ----
Query: Fill in: Max. degradation (%) of COc1cc(C(C)(C)C)ccc1S(=O)(=O)N1C[C@H]2C[C@H]3C[C@H](C3(C)C)[C@@]2(COC(=O)Nc2ccc(I)cc2)C1 is ___
Reply: 14 ± 15 (5) %

* * *

Each entry below carries its reported Max. degradation (%).
- tested target: IDO1 protein levels in BxPC3 cells (Homo sapiens)
- assay details: IDO1 immunoblotting (degradation)
- Type: cell-based
- Parameters: endogenous in cells; host or cells: BxPC3 (DSMZ), IFN-γ stimulated
- measurement parameters: 10 nM, 24 h incubation; mean ± SD

> print(dat)
                         structure.notation         property.name       reported
1  CC(C)(C(=O)O)c1ccc(S(=O)(=O)N2C[C@H]3C[C@H]4C[C@H](C4(C)C)[C@@]3(COC(=O)Nc3ccc(I)cc3)C2)cc1  Max. degradation (%)  23 ± 22 (5) %

Query: Need Max. degradation (%), item CCc1cc(C(C)(C)C)ccc1S(=O)(=O)N1C[C@H]2C[C@H]3C[C@H](C3(C)C)[C@@]2(COC(=O)Nc2ccc(I)cc2)C1
Reply: 25 ± 10 (3) %
